Provenance of the data: PubChem BioAssay (NCI)

Tested on: HOP-92 NSCLC
Test: NCI-60 one-dose screen, 48 h (100 = growth as untreated, 0 = no growth, -100 = all killed)
Conditions: 10 µM unless noted
Procedure: Growth inhibition of the HOP-92 human Non-Small Cell Lung tumor cell line is measured as a screen for anti-cancer activity. Cells are grown in 96 well plates and exposed to the test compound for 48 hours. Compounds are tested at a single concentration, which is 10^-5 M for most compounds. The reported endpoint is percent growth (GI% or GIPRCNT), where numbers from 0 - 100% represent growth inhibition, and numbers from -100% - 0 represent cell death. […]
Compounds without any hit were thinned out: in the full panel of roughly 83,000, 20% have a hit.
Provide the reported growth of each item.
Just the number in %, nothing appended.

// query Fill in: growth of C#CCC1(c2ccc(F)c(F)c2)NS(=O)(=O)c2ccccc21 (stereo unspecified) is ___
// result 106

// query Consider the compound shown here: `CC(C)(C)c1ccc(S(=O)(=O)Oc2ccc3c4c(c(=O)oc3c2)CCCCC4)cc1` What is its recorded growth?
// result 3.94

// query Consider the compound shown here: `CN(C)C/C=C/C(=O)Nc1cc2c(Nc3ccc(F)c(Cl)c3F)ncnc2cc1OCCOC(F)F` What is its recorded growth?
// result -53.7

// query Form field: reported growth of `ClC1=C(Cl)C(Cl)=C(Cl)C1=Cc1ccc(Cl)cc1Cl`
// result -81

// query Reported growth for `C=C1C(=O)O[C@H]2[C@H]1CC/C(COC(=O)NCCc1ccc(OC)cc1)=C\CC[C@@]1(C)O[C@@H]21` : what is it?
// result 21.9

// query // lookup growth for CCn1cc(C2NC(=O)c3cc(F)ccc3N2)c2cccc(Cl)c21 (stereo unspecified)
// result 72

// query Find the recorded growth belonging to `CC(C)CCN(CCCNc1c2c(nc3ccccc13)CCCC2)CCC(C)C` and report it.
// result 42.4

// query Which value of growth has been reported for COc1cc(C2C3=C(COC3=O)Nc3c2ccc2c3CCCC2)cc2c1OCO2 (stereo unspecified) in the records?
// result 127

// query Give the measured growth of `COc1cc(NC(=O)CSc2nc3ccc(C)cc3c(=O)n2-c2ccccc2)cc(OC)c1OC` .
// result 49.5

// query Entry under review: C#CCN1C(=O)/C(=c2\sc3n(c2=O)NC2C(N=3)N(CC)C(=O)N2CC)c2ccccc21 (stereo unspecified) . Reported growth?
// result 76.4

// query Find the recorded growth belonging to CCOC(=O)c1ccccc1NC(c1ccccc1)c1ccc2cccnc2c1O (stereo unspecified) and report it.
// result 16.5

// query What does the data say about its growth? Entry: `O=C(Nc1cccc(C(F)(F)F)c1)Nc1ccc(OCc2nnc(-c3ccccc3)o2)c(F)c1`
// result -8.2

// query Request the reported growth associated with `Cc1cc(C)c(NC(=O)c2sc3nc4c(cc3c2N)CN(Cc2ccccc2)CC4)c(C)c1`
// result 37.7

// query Item `Cc1cc(Nc2nc(C(=O)Nc3ccccc3)nc3ccccc23)n[nH]1` has what recorded growth?
// result 51.2

// query Suppose we examine the compound `COc1cc(CNC(=O)CSc2nc3ccccc3c(=O)n2Cc2cc(OC)c(OC)c(OC)c2)cc(OC)c1OC` ; what growth value has been reported?
// result 106

// query Which growth is listed for `CCSc1nnc(Nc2ccc(C(C)C)cc2)s1` ?
// result 92.7

// query Entry COc1cc(C2C=C(C)N=C3SC=C(C)N32)cc(OC)c1OC (stereo unspecified) : reported growth = ?
// result -32.4

// query Return reported growth; argument: `COc1ccc(-c2nc(-c3nc4ccc(F)cc4[nH]3)cc3c2[nH]c2ccccc23)cc1`
// result 31.8

// query Quick check: growth of OC1CC2c3ccccc3C1c1ccccc12 (stereo unspecified) ?
// result 96.2

// query // growth lookup, key: CCCCOc1nc2c(C)cccc2cc1C1CNC(=O)c2ccccc2N1 (stereo unspecified)
// result 62.6

// query Would you kindly share the measured growth for `O=C(NNC(=S)Nc1ccccc1)c1ccccn1` ?
// result 16.7

====

System: HS 578T breast
Experiment: NCI-60 one-dose screen, 48 h
Settings: 10 µM unless noted
Procedure: Growth inhibition of the HS 578T human tumor cell line is measured as a screen for anti-cancer activity. Cells are grown in 96 well plates and exposed to the test compound for 48 hours. Compounds are tested at a single concentration, which is 10^-5 M for most compounds. The reported endpoint is percent growth (GI% or GIPRCNT), where numbers from 0 - 100% represent growth inhibition, and numbers from -100% - 0 represent cell death. For example, a value of 40 represents 60% growth inhibition. […]
Compounds without any hit were thinned out: in the full panel of roughly 83,000, 20% have a hit. Activity calls are given as the source filed them. How the source made its calls: active means growth percent below 10; inactive means the rest.
Lab note: assign the record to one of true = active, false = inactive

// query Any idea what this test logged for `Cc1cc(N/C=c2\sc3ncnn3c2=O)no1` ?
// result false

// query Give the logged outcome of this assay for the following compound: `C=C1C(=O)O[C@H]2[C@H]1CC/C(Cn1cc(-c3ccccc3C(F)(F)F)nn1)=C\CC[C@@]1(C)O[C@@H]21`
// result false

// query Outcome? `O=C(OCCCCOC(=O)n1cnc2ccccc21)n1cnc2ccccc21`
// result false

// query Just curious, what result did `Clc1nc(-c2cccnc2)nc2sc3c(c12)CCCCCC3` get here?
// result false

// query Please share the test call associated with `COC(=O)c1cc(-c2cccs2)c(C#N)c(N)c1C#N` .
// result false

// query Which result was noted for this compound in the test: `C=C1C(=O)O[C@H]2[C@H]1CC/C(COC(=O)NCc1ccc(OC)cc1)=C\CC[C@@]1(C)O[C@@H]21`
// result false

// query Field: outcome | Entry: C=CCOc1ccc(/C(O)=C2\C(=O)C(=O)N(c3nccs3)C2c2ccccc2F)cc1 (stereo not given)
// result false

// query Just curious, what result did `O=C(/C=C/CN1CCCCC1)Nc1cc2c(Nc3ccc(F)c(Cl)c3F)ncnc2cc1OCCOC(F)F` get here?
// result true

// query Short answer needed: outcome of this test for `O=C(C[N+](=O)[O-])c1ccc(Cl)cc1` ?
// result false

// query Per the records of this test, what outcome belongs to `CC(C)C[C@H](NC(=O)[C@H](Cc1ccccc1)n1ccc(N2CCCCC2)cc1=O)B(O)O` ?
// result false

====

system: DU-145 prostate; assay: NCI-60 one-dose screen, 48 h (100 = growth as untreated, 0 = no growth, -100 = all killed); details: 10 µM unless noted
About 83,000 compounds went through this panel and 20% of them were active in at least one assay; those are over-represented in the sample as a whole.
property.measured: growth (%)
Answer in %, number only, no unit symbol.

// query Quick one: growth of `CC(C)(C)c1ccc(S(=O)(=O)Oc2ccc3c4c(c(=O)oc3c2)CCCCC4)cc1` ?
// result 77.4

// query Name the reported growth value associated with the compound `C=C1C(=O)O[C@H]2[C@H]1CC/C(COC(=O)NCCc1cccc(OC)c1)=C\CC[C@@]1(C)O[C@@H]21`
// result 16.5

// query Return reported growth; argument: `O=C(N/N=C/c1c(Cl)cccc1Cl)c1ccccc1Nc1ccnc(C(F)(F)F)c1`
// result 109

// query // returns reported growth for input `CC(=O)Nc1nc(C(=O)N2N=C(C)/C(=C/c3ccccc3)C2=O)cs1`
// result 111

// query I'd like to know its growth. The compound in question is `CCn1cc(C(=O)O)c(=O)c2cc(F)c(N3CCN(S(=O)(=O)c4c(C)cc(C)cc4C)CC3)cc21`
// result 99.5

// query # growth lookup, item `CC(=O)Nc1ccc2c(c1)/C(=C\C=C/c1ccc([N+](C)(C)C)cc1)c1ccccc1-2`
// result 73

// query Give the measured growth of `COc1ccc(NC(=O)CSc2nc3ccccc3c(=O)n2Cc2cc(OC)c(OC)c(OC)c2)cc1` .
// result 95.6

// query State the recorded growth for this entry: `C=CCc1cc(Cl)cc2c(OC(C)=O)c(C(C)=O)c(-c3ccccc3)nc12`
// result 112

// query Which growth value is on record for `Cc1ccccc1C(=O)c1ccccc1C(=O)O` ?
// result 110
